I'd be grateful if you could share measured Ki for these entries.
target: HCV genotype 1b (BK) NS3 modified with a R155K mutation (Hepatitis C virus genotype 1b, UniProt P26663, R1181K); construct: HCV genotype 1b (BK) NS3 modified with a R155K mutation; experiment: HCV NS3 protease time-resolved fluorescence (TRF) assay, NS3 protease 1b R155K Ki activity; details: HCV genotype 1b (BK) NS3 with R155K mutation; TRF peptide substrate 100 nM; Ki derived from IC50

Known Ki results, listed for orientation:
C=C[C@@H]1C[C@]1(NC(=O)[C@@H]1C[C@@H]2CN1C(=O)[C@H](C1CCCC1)NC(=O)O[C@@H]1CCC[C@H]1CCCCCn1c(nc3cc(Cl)ccc3c1=O)O2)C(=O)NS(=O)(=O)C1CC1	< 0.1 nM
CC[C@@H]1C[C@]1(NC(=O)[C@@H]1C[C@@H]2CN1C(=O)[C@H](C1CCCC1)NC(=O)O[C@@H]1CCC[C@H]1CCCCCn1c(nc3cc(Cl)ccc3c1=O)O2)C(=O)NS(=O)(=O)C1CC1	0.1 to 0.5 nM
C=C[C@@H]1C[C@]1(NC(=O)[C@@H]1C[C@@H]2CN1C(=O)[C@H](C1CCCC1)NC(=O)O[C@@H]1CCC[C@H]1CC/C=C/Cn1c(nc3cc(C)ccc3c1=O)O2)C(=O)NS(=O)(=O)C1CC1 [Example 61]	< 0.1 nM
CC[C@@H]1C[C@]1(NC(=O)[C@@H]1C[C@@H]2CN1C(=O)[C@H](C1CCCC1)NC(=O)O[C@@H]1CCC[C@H]1CCCCCn1c(cc3ccccc3c1=O)O2)C(=O)NS(=O)(=O)C1CC1	0.1 to 0.5 nM
C=C[C@@H]1C[C@]1(NC(=O)[C@@H]1C[C@@H]2CN1C(=O)[C@H](C1CCCCC1)NC(=O)O[C@@H]1CCC[C@H]1C/C=C/CCn1c(cc3cc(Cl)ccc3c1=O)O2)C(=O)NS(=O)(=O)C1CC1	< 0.1 nM
C=C[C@@H]1C[C@]1(NC(=O)[C@@H]1C[C@@H]2CN1C(=O)[C@H](C1CCCC1)NC(=O)O[C@@H]1CCC[C@H]1CC/C=C/Cc1c(nc3cc(OC)ccn3c1=O)O2)C(=O)NS(=O)(=O)C1CC1 [Example 57]	< 0.1 nM
CC[C@@H]1C[C@]1(NC(=O)[C@@H]1C[C@@H]2CN1C(=O)[C@H](C1CCCCC1)NC(=O)O[C@@H]1CCC[C@H]1C/C=C/CCn1c(cc3cc(Cl)ccc3c1=O)O2)C(=O)NS(=O)(=O)C1CC1	0.1 to 0.5 nM
C=C[C@@H]1C[C@]1(NC(=O)[C@@H]1C[C@@H]2CN1C(=O)[C@H](C(C)(C)C)NC(=O)O[C@@H]1CCC[C@H]1C/C=C/CCn1c(cc3cc(Cl)ccc3c1=O)O2)C(=O)NS(=O)(=O)C1CC1	< 0.1 nM
C=C[C@@H]1C[C@]1(NC(=O)[C@@H]1C[C@@H]2CN1C(=O)[C@H](C1CCCC1)NC(=O)O[C@@H]1CCC[C@H]1CCCCCn1c(nc3cc(OC)ccc3c1=O)O2)C(=O)NS(=O)(=O)C1(C)CC1	< 0.1 nM

Could you now consider this next compound?
Q) So what's the measured Ki for this one? C=C[C@@H]1C[C@]1(NC(=O)[C@@H]1C[C@@H]2CN1C(=O)[C@H](C1CCCC1)NC(=O)O[C@@H]1CCC[C@H]1CC1CC1CCn1c(cc3cc(Cl)ccc3c1=O)O2)C(=O)NS(=O)(=O)C1CC1 (stereo partly shown)
A) 0.1 to 0.5 nM

====

biological target: HCV genotype 1b (BK) NS3 modified with a R155K mutation (Hepatitis C virus genotype 1b, UniProt P26663, R1181K); construct: HCV genotype 1b (BK) NS3 modified with a R155K mutation; assay: HCV NS3 protease time-resolved fluorescence (TRF) assay, NS3 protease 1b R155K Ki activity; settings: HCV genotype 1b (BK) NS3 with R155K mutation; TRF peptide substrate 100 nM; Ki derived from IC50
I'd be grateful if you could share measured Ki for these entries.

Known Ki results, listed for orientation:
C=C[C@@H]1C[C@]1(NC(=O)[C@@H]1C[C@@H]2CN1C(=O)[C@H](C1CCCC1)NC(=O)O[C@@H]1CCC[C@H]1CC/C=C/Cn1c(nc3ccccc3c1=O)O2)C(=O)NS(=O)(=O)C1CC1	< 0.1 nM
C=C[C@@H]1C[C@]1(NC(=O)[C@@H]1C[C@@H]2CN1C(=O)[C@H](C1CCCC1)NC(=O)O[C@@H]1CCC[C@H]1CCCCCn1c(nc3ccccc3c1=O)O2)C(=O)NS(=O)(=O)C1CC1	< 0.1 nM
CC[C@@H]1C[C@]1(NC(=O)[C@@H]1C[C@@H]2CN1C(=O)[C@H](C1CCCC1)NC(=O)O[C@@H]1CCC[C@H]1CC/C=C/Cn1c(nc3cc(C)ccc3c1=O)O2)C(=O)NS(=O)(=O)C1CC1	0.1 to 0.5 nM
C=C[C@@H]1C[C@]1(NC(=O)[C@@H]1C[C@@H]2CN1C(=O)[C@H](C1CCCC1)NC(=O)O[C@@H]1CCC[C@H]1CC/C=C/Cn1c(nc3cc(Cl)ccc3c1=O)O2)C(=O)NS(=O)(=O)C1CC1	< 0.1 nM
C=C[C@@H]1C[C@]1(NC(=O)[C@@H]1C[C@@H]2CN1C(=O)[C@H](C(C)(C)C)NC(=O)O[C@H]1CCC[C@@H]1CCCCCCn1c(cc3ccccc3c1=O)O2)C(=O)NS(=O)(=O)C1CC1	0.5 to 1 nM

Parameter requested: Ki. Apply to each item below.
1. C=C[C@@H]1C[C@]1(NC(=O)[C@@H]1C[C@@H]2CN1C(=O)[C@H](C1CCCC1)NC(=O)O[C@@H]1CCC[C@H]1C/C=C/CCn1c(cc3ccccc3c1=O)O2)C(=O)NS(=O)(=O)C1CC1
2. CC[C@@H]1C[C@]1(NC(=O)[C@@H]1C[C@@H]2CN1C(=O)[C@H](C1CCCCC1)NC(=O)O[C@@H]1CCC[C@H]1CCCCCn1c(cc3cc(Cl)ccc3c1=O)O2)C(=O)NS(=O)(=O)C1CC1

A)
1: < 0.1 nM; 2: 0.1 to 0.5 nM

Parameter requested: Ki. Apply to each item below.
1. C=C[C@@H]1C[C@]1(NC(=O)[C@@H]1C[C@@H]2CN1C(=O)[C@H](C1CCCC1)NC(=O)O[C@@H]1CCC[C@H]1CCCCCn1c(nc3cccc(OC)c3c1=O)O2)C(=O)NS(=O)(=O)C1CC1
2. CC[C@@H]1C[C@]1(NC(=O)[C@@H]1C[C@@H]2CN1C(=O)[C@H](C(C)(C)C)NC(=O)O[C@@H]1CCC[C@H]1CCCCCn1c(cc3cc(Cl)ccc3c1=O)O2)C(=O)NS(=O)(=O)C1CC1
3. CC[C@@H]1C[C@]1(NC(=O)[C@@H]1C[C@@H]2CN1C(=O)[C@H](C1CCCC1)NC(=O)O[C@@H]1CCC[C@H]1CC/C=C/Cn1c(nc3cc(OC)ccc3c1=O)O2)C(=O)NS(=O)(=O)C1CC1

A)
0.1 to 0.5 nM
0.1 to 0.5 nM
0.1 to 0.5 nM

====

biological target: HCV genotype 1b (BK) NS3 modified with a R155K mutation (Hepatitis C virus genotype 1b, UniProt P26663, R1181K); construct: HCV genotype 1b (BK) NS3 modified with a R155K mutation; experiment: HCV NS3 protease time-resolved fluorescence (TRF) assay, NS3 protease 1b R155K Ki activity; settings: HCV genotype 1b (BK) NS3 with R155K mutation; TRF peptide substrate 100 nM; Ki derived from IC50
pKi: −log10 of the molar value.
I'd be grateful if you could share measured pKi for these entries.

C=C[C@@H]1C[C@]1(NC(=O)[C@@H]1C[C@@H]2CN1C(=O)[C@H](C1CCCC1)NC(=O)O[C@@H]1CCC[C@H]1CCCCCCn1c(cc3ccccc3c1=O)O2)C(=O)NS(=O)(=O)C1CC1	9.30 to 10.00
CC[C@@H]1C[C@]1(NC(=O)[C@@H]1C[C@@H]2CN1C(=O)[C@H](C1CCCC1)NC(=O)O[C@@H]1CCC[C@H]1CC/C=C/Cc1c(nc3ccccn3c1=O)O2)C(=O)NS(=O)(=O)C1CC1	9.30 to 10.00

Parameter requested: pKi. Apply to each item below.
1. C=C[C@@H]1C[C@]1(NC(=O)[C@@H]1C[C@@H]2CN1C(=O)[C@H](C1CCCC1)NC(=O)O[C@H]1C[C@@H]1CCCCCn1c(cc3ccccc3c1=O)O2)C(=O)NS(=O)(=O)C1CC1
2. C=C[C@@H]1C[C@]1(NC(=O)[C@@H]1C[C@@H]2CN1C(=O)[C@H](C1CCCC1)NC(=O)O[C@@H]1CCC[C@H]1CCCCCn1c(nc3cc(OC)ccc3c1=O)O2)C(=O)NS(=O)(=O)C1CC1
3. CC[C@@H]1C[C@]1(NC(=O)[C@@H]1C[C@@H]2CN1C(=O)[C@H](C1CCCC1)NC(=O)O[C@@H]1CCC[C@H]1CCCCCn1c(nc3cccc(OC)c3c1=O)O2)C(=O)NS(=O)(=O)C1CC1
4. C=C[C@@H]1C[C@]1(NC(=O)[C@@H]1C[C@@H]2CN1C(=O)[C@H](C1CCCC1)NC(=O)O[C@@H]1CCC[C@H]1CC/C=C/Cn1c(nc3cc(-c4ccccc4)ccc3c1=O)O2)C(=O)NS(=O)(=O)C1CC1

A)
1. 9.30 to 10.00
2. > 10.00
3. 9.00 to 9.30
4. > 10.00

Q) So what's the measured pKi for this one? CC[C@@H]1C[C@]1(NC(=O)[C@@H]1C[C@@H]2CN1C(=O)[C@H](C1CCCC1)NC(=O)O[C@@H]1CCC[C@H]1CC/C=C/Cn1c(nc3cc(-c4ccccc4)ccc3c1=O)O2)C(=O)NS(=O)(=O)C1CC1
A) 9.30 to 10.00

Provenance of the data: patent US8461107B2
